# System: MRC-5 cells
# run description: Cytotoxicity assay using MRC-5 cells (XTT colorimetric cell viability)
# Type: cell-based, human
# measurement setup: compound 5 µM, solvent control DMSO 0.1 %
Would you mind telling me the reported cell metabolic activity in % of the solvent control, mean of each entry?
Answers are plain numbers, in %.

# batch: return cell metabolic activity in % of the solvent control, mean for each of the 4 compounds below
1. CC1(C)CC(=O)C(C(c2ccccc2)N2CCOCC2)=CN1 (racemic) [Example 3]
2. CC1(C)CC(=O)C(C(c2ccccc2)N2CCCC2)=CN1 (racemic) [Example 1]
3. CC1(C)CC(=O)C(C(c2ccc(F)cc2)N2CCOCC2)=CN1 (racemic) [Example 6]
4. Cc1ccc(C(C2=CNC(C)(C)CC2=O)N2CCCC2)cc1 (racemic) [Example 7]

[110.88, 107.18, 105.36, 100.07]

---

# Test system: human CCRF-CEM leukemia cells
# run description: Anticancer activity by cytotoxicity to human CCRF-CEM leukemia cells (XTT colorimetric cell viability)
# Assay type: cell-based
# measurement setup: compound 50 µM, solvent control DMSO 0.1 %
For each entry below, report its cell metabolic activity in % of the solvent control, mean value.
Answers are plain numbers, in %.

// solved cases for cell metabolic activity in % of the solvent control, mean follow
| compound | unit info | endpoint value |
| --- | --- | --- |
| CC1(C)CC(=O)C(C(c2ccccc2)N2CCCCC2)=CN1 (racemic) | % | 8.75 |
| CC1(C)CC(=O)C(C(c2ccccc2)N2CCOCC2)=CN1 (racemic) | % | 10.98 |

Required: cell metabolic activity in % of the solvent control, mean, one value per compound below.
1. CC1(C)CC(=O)C(C(c2ccccc2C(F)(F)F)N2CCCC2)=CN1 (racemic)
2. CC(C)c1ccc(C(C2=CNC(C)(C)CC2=O)N2CCCC2)cc1 (racemic)

1: 8.46; 2: 8.72

Give measured cell metabolic activity in % of the solvent control, mean for every item shown.
1. Cc1ccc(C(C2=CNC(C)(C)CC2=O)N2CCCC2)cc1 (racemic)
2. CC1(C)CC(=O)C(C(c2ccc(F)cc2)N2CCOCC2)=CN1 (racemic)
3. CC1(C)CC(=O)C(C(c2ccc(F)cc2)N2CCCC2)=CN1 (racemic)
4. CC1(C)CC(=O)C(C(c2ccccc2)N2CCCC2)=CN1 (racemic)

[8.52, 8.78, 8.82, 9.02]

---

# Tested on: MRC-5 cells
# run description: Cytotoxicity assay using MRC-5 cells (XTT colorimetric cell viability)
# Format: cell-based, human
# measurement setup: compound 5 µM, solvent control DMSO 0.1 %
measurement kind: cell metabolic activity in % of the solvent control, mean (%)
Answers are plain numbers, in %.

As a guide, the following entries are already answered.
| molecule | endpoint value |
| --- | --- |
| CC1(C)CC(=O)C(C(c2ccc(F)cc2)N2CCCC2)=CN1 (racemic) | 105.92 |
| CC(C)c1ccc(C(C2=CNC(C)(C)CC2=O)N2CCCC2)cc1 (racemic) | 104.11 |
| CC1(C)CC(=O)C(C(c2ccccc2C(F)(F)F)N2CCCC2)=CN1 (racemic) | 103.65 |

Now for another entry.
In plain terms, CC1(C)CC(=O)C(C(c2ccccc2)N2CCCCC2)=CN1 (racemic) has a documented cell metabolic activity in % of the solvent control, mean of 108.05
